test_protocol: Inhibition of PI3Kalpha in human HCT116 cells coexpressing PI3Kalpha H1047R mutant assessed as growth inhibition after 24 hrs by MTT assay
metric_name: pIC50
The value called pIC50 is obtained by taking minus log10 of the concentration in mol/L.

Query: Quick one: pIC50 for `O=C(c1ccccc1)c1ccc(NC(=O)c2cc3ccccc3[nH]2)cc1` ?
Response: 4.27

Query: I'd like to know its pIC50. The compound in question is `O=C(c1ccccc1)c1cccc(NC(=O)c2cc3ccccc3[nH]2)c1`
Response: 4.26

Query: // lookup pIC50 for CC(O)c1cccc(NC(=O)c2cc3ccccc3[nH]2)c1 (stereo not drawn)
Response: 4.42

Query: pIC50 lookup needed for CC(O)c1ccc(NC(=O)c2cc3ccccc3[nH]2)cc1 (stereo not drawn) , thanks.
Response: 4.43

Query: Given the compound O=C(Nc1ccc(C(O)c2ccccc2)cc1)c1cc2ccccc2[nH]1 (stereo not drawn) , what is its reported pIC50?
Response: 4.36

Query: Please report the recorded pIC50 for O=C(Nc1cccc(C(O)c2ccccc2)c1)c1cc2ccccc2[nH]1 (stereo not drawn) .
Response: 4.72

Query: Entry `CC(=O)c1cccc(NC(=O)c2cc3ccccc3[nH]2)c1` has what pIC50?
Response: 4.19

Query: Fill in the blank: the reported pIC50 of `CC(=O)c1ccc(NC(=O)c2cc3ccccc3[nH]2)cc1` is ____.
Response: 4.21

###

test_protocol: Inhibition of EGFR in human MDA231 cells assessed as growth inhibition after 24 hrs by MTT assay
Mark Satisfied for IC50 under 50 µM, Not satisfied if at or over.

Query: # check: IC50 < 50 µM for CC(O)c1cccc(NC(=O)c2cc3ccccc3[nH]2)c1 (stereo not drawn)
Response: Satisfied

Query: Is IC50 strictly under 50 µM for the entry `O=C(c1ccccc1)c1cccc(NC(=O)c2cc3ccccc3[nH]2)c1` ?
Response: Satisfied

Query: State whether 50 µM exceeds IC50 recorded for O=C(Nc1cccc(C(O)c2ccccc2)c1)c1cc2ccccc2[nH]1 (stereo not drawn) .
Response: Satisfied

Query: Determine whether this compound shows IC50 lower than 50 µM (ties excluded): CC(O)c1ccc(NC(=O)c2cc3ccccc3[nH]2)cc1 (stereo not drawn)
Response: Satisfied

Query: Bench note: check whether `CC(=O)c1cccc(NC(=O)c2cc3ccccc3[nH]2)c1` shows IC50 below 50 µM
Response: Not satisfied

Query: Is 50 µM strictly greater than the compound's reported IC50? compound: O=C(Nc1ccc(C(O)c2ccccc2)cc1)c1cc2ccccc2[nH]1 (stereo not drawn)
Response: Satisfied
